- Test system: HOP-18 NSCLC
- TEST PROTOCOL: NCI tumour cell line growth inhibition, 48 h
QUANTITY NAME: TGI

C[C@@H](NC1CCCC[C@H]1O)c1ccccc1 (stereo partly drawn) ... > 100 µM
Nc1nc2c3nc(Nc4ccccc4)sc3nc(=S)n2c2sc(Nc3ccccc3)nc12 ... > 100 µM

Case C/C(=C1/N=C(c2cc([N+](=O)[O-])ccc2Cl)N(c2cccc(C)c2)C1=O)c1cc2ccccc2oc1=O , HOP-18 NSCLC, TGI recorded as > 100 µM

* * *

- Tested on: CCRF-CEM leukemia
- TEST PROTOCOL: NCI tumour cell line growth inhibition, 48 h
Recorded TGI by entry

Observe how each entry below is paired with its result.
Fc1cccc(COc2ccc(Nc3ncnc4sc(-c5cccs5)cc34)cc2Cl)c1 ... > 25 µM
CCN1C/C(=C\c2cc(OC)c(OC)cc2OC)C(=O)/C(=C/c2cc(OC)c(OC)cc2OC)C1 ... > 100 µM
COC(=O)/C=C1\C(=O)N(C(C)=O)c2ccc(Br)cc21 ... 4.84 µM
COc1ccc(N=NC(=O)NC(Cc2ccccc2)C(=O)O)cc1 (stereo unspecified) ... > 100 µM
O=C1CSCc2sccc21 ... > 100 µM

Shift focus to the following entry.
The compound listed as CCN(CC)C(=O)Cc1c(C(=O)N(CC)CC)c(=O)nc2sccn12 has a reported TGI of > 100 µM

* * *

Measured TGI, listed per entry.
- System: K-562 leukemia
- TEST PROTOCOL: NCI tumour cell line growth inhibition, 48 h

Cc1ccccc1N=Nc1c(O)c(S(=O)(=O)O)cc2cc(S(=O)(=O)O)ccc12 ... > 100 µM
Cn1c(=O)[nH]c2nncnc2c1=O ... > 519 µM
CC(C)C1C(=O)N(c2c(F)c(F)c(F)c(F)c2F)C(=S)N1CCS(=O)c1ccccc1 (configuration not stated) ... 39.6 µM

O=C(N/C(=C\c1ccc(Cl)cc1)c1nc2ccccc2[nH]1)c1ccccc1 has a reported TGI of 38.8 µM

Please fill in: TGI reported for CC(C)(C)OC(=O)NC(CCCCNC(=O)OCc1ccccc1)C(=O)NCCNc1ccc(NCCNC(=O)C(CCCCNC(=O)OCc2ccccc2)NC(=O)OC(C)(C)C)c2c1C(=O)c1ccccc1C2=O (configuration not stated) = > 100 µM

Lookup result for CCCCCCCCCCCCCCCCCc1cccc(OCOCCOC)c1C(=O)O ; measured TGI: > 83 µM

compound O=P12N(CCN1c1ccccc1)CCN2c1ccccc1 , TGI observed: > 100 µM

* * *

- Tested on: SK-MEL-2 melanoma
- TEST PROTOCOL: NCI tumour cell line growth inhibition, 48 h
QUANTITY NAME: TGI

Solved cases (3 shown):
Fc1cc2[nH]ncc2c2c3c(c(-c4cn[nH]c4C(F)(F)F)nc12)CCCC3 ... 5.67 µM
N.N.N.N.N.[Co+3].[I-].[N-]=[N+]=[N-] ... > 100 µM
O=C(c1ccccc1)c1c(CC(O)c2ccccn2)n(C(=O)c2ccccc2)c2ccccc12 (centres undefined) ... 30.9 µM

response.value for NC1=CN(CCCO)C2=N/C(=C\c3ccccc3)C(=O)N12 (field: TGI) = > 100 µM

Sample O=C(O)CN1C=C(C(=O)c2cc3ccccc3n2S(=O)(=O)c2ccccc2)CCC1 ; TGI observed: > 100 µM
